System: SF-539 CNS
Assay: NCI tumour cell line growth inhibition, 48 h
assay_endpoint: log10 TGI (log10 of the value in µM)

compound | value_reported
O=C(c1ccc2ccccc2c1)c1c(C(F)(F)F)n([O-])c2ccc(C(F)(F)F)cc2[n+]1=O | 0.47
O=c1cc(-c2cccs2)[nH]c2cc3c(cc12)OCO3 | 1.10
O=S1(=O)c2ccccc2Oc2ccc(C(/C=N/O)=N/O)cc21 | 1.93
COc1ccc(N2C(=O)C3c4[nH]c5ccc(OCc6ccccc6)cc5c4C4CCC(c5ccccc5)CC4C3C2=O)cc1 (centres undefined) | 0.86
C=C1CCC2C3(C)COC(C)(C)OC3CCC2(C)C1C/C=C1/C(=O)OCC1OC(C)=O (centres undefined) | 0.52
CCOc1ccccc1CCN=C1NC(=O)/C(=C/c2ccc3ncccc3c2)S1 | 0.47
Nc1nc2ccc(-c3nc4ccc5[nH]ncc5c4c4c3CCC4)cc2s1 | 0.62
COc1ccc(C2=Nn3c(nnc3-c3cc(Cl)cc(Cl)c3Cl)SC2)cc1 | -0.13
COc1cccc(-c2nc3cc(NC(=O)c4ccc(Cl)c(C#N)c4)ccc3o2)c1 | 0.53
O=C(/C=C(/C=C/c1ccc2[nH]ccc2c1)OB(F)F)/C=C/c1ccc2[nH]ccc2c1 | 0.97
CC(C)/C(Cl)=N/OC(=O)Nc1ccc(Br)cc1 | 1.46
COc1ccc(-c2noc(C(=O)O)c2-c2cc(OC)c(OC)c(OC)c2)cc1 | 1.31
c1ccc(/C(=N/Nc2nc3ccccc3s2)C2CCCCC2)nc1 | 1.44
O=C1/C(=C/c2ccc([N+](=O)[O-])cc2)CN(C(=O)CCN2CCC(=NO)CC2)C/C1=C\c1ccc([N+](=O)[O-])cc1 | 0.46
O=C(Nc1ccccc1F)c1cc2ccc(O)cc2oc1=Nc1cccc(F)c1 | 1.63
O=S(=O)(Nc1ccc(Br)cc1)c1ccc(-c2cnc(C3CC3)o2)cc1 | 0.77
N#Cc1c(-c2ccc(Cl)cc2)c2c(nn3c4ccc5ccccc5c4nnc23)[nH]c1=O | 0.60
CC1CC[C@@]2(OC1)OC1C[C@H]3[C@@H]4CC=C5CC(OC6OC(CO)C(OC7OC(CO)C(O)C(OC8OCC(O)C(O)C8O)C7OC7OC(CO)C(OC8OC(C)C(OC9OC(C)C(O)C(O)C9O)C(O)C8O)C(O)C7O)C(O)C6O)CCC5(C)[C@H]4CCC3(C)C1[C@@H]2C (some centres undefined) | 1.10

* * *

Test system: 786-0 renal
Assay: NCI tumour cell line growth inhibition, 48 h
assay_endpoint: TGI

compound | value_reported
C=CCC1(C#N)C(=S)NC2=C(C(=O)CC(C)(C)C2)C1c1ccccc1 (configuration not stated) | > 100 µM
N#Cc1c(-c2ccc(Cl)cc2)c2c(nn3c4ccc5ccccc5c4nnc23)[nH]c1=O | 6.16 µM
Cc1c2cnccc2c(C)c2c1c1cc(C#N)ccc1n2C | 1.3 µM
Cn1nc2ccc([N+](=O)[O-])c(Cn3nnc4ccccc43)c2n1 | > 100 µM
C1CSCCCSCCCSCCCSCCCSCCCSCCCSCCCSC1 | > 100 µM
Cc1cc(C)nc(NS(=O)(=O)c2ccc(NC(=O)c3c4ccccc4nc4ccccc34)cc2)n1 | > 100 µM
O=C(Nc1ccccc1F)c1cc2ccc(O)cc2oc1=Nc1cccc(F)c1 | 30 µM
O=C(NCC1CC1)c1ccc(-c2cccc(C(=O)NC3CC3)c2)cc1 | > 25 µM
O=c1cc(-c2cccs2)[nH]c2cc3c(cc12)OCO3 | > 41.3 µM
O=S1(=O)c2ccccc2Oc2ccc(C(/C=N/O)=N/O)cc21 | > 100 µM
CC(C)(C)c1ccccc1N1C(=O)c2ccc3c4c(ccc(c24)C1=O)N(c1ccccc1C(C)(C)C)C3=O | > 100 µM
CC(C)(C)c1ccc(OCCOc2ccc(C(C)(C)C)cc2N)c(N)c1 | > 100 µM
CN(C)CCNC(=O)Cn1ccc(=O)c2cc([N+](=O)[O-])ccc21 | > 100 µM
O=C1Nc2ccccc2C1(O)C/C(=N/O)c1ccc2ccccc2c1 (configuration not stated) | > 100 µM
CCN(CCCOc1ccccc1)CCN(CC)CCCOc1ccccc1 | 50.7 µM
CCc1cccc(C)c1NS(=O)(=O)c1ccccc1 | > 100 µM
O=C(Nc1ccc(N2C(=O)CSC2c2ccccc2O)cc1)c1ccc(N2C(=O)CSC2c2ccccc2O)cc1 (configuration not stated) | > 100 µM
O=c1[nH]cc(NCCCl)c(=O)[nH]1 | > 100 µM
CN1N=CSC12C(=O)N(c1ccccc1)C(=O)N2c1ccccc1 (configuration not stated) | > 100 µM
O=S(=O)(Nc1ccc(Br)cc1)c1ccc(-c2cnc(C3CC3)o2)cc1 | 20.1 µM
N=C1C(=N)c2ccccc2-c2ccccc21.[Cl-].[Ru+2].c1ccc(-c2ccccn2)nc1.c1ccc(-c2ccccn2)nc1 | > 100 µM
NC(=O)CNC(=O)[C@@H]1CC(OCCC(=O)O)CN1C(=O)C1CCCN1C(=O)OCc1ccccc1 (some centres not stated) | > 100 µM

* * *

Tested on: PC-3 prostate
Assay: NCI tumour cell line growth inhibition, 48 h
Catalogue of molecules with associated TGI

molecule | comparison_sign | TGI, µM
COc1cc(/C=C2\C(=O)N(c3cccc([N+](=O)[O-])c3)C(c3ccccc3)S2(=O)=O)cc(OC)c1OC (centres undefined) | > | 100
O=C(O)CCc1nc2c(n1-c1ccccc1)C(=O)c1ccccc1C2=O | > | 100
O=S(=O)(Nc1ccc(Br)cc1)c1ccc(-c2cnc(C3CC3)o2)cc1 | = | 15.5
CC1CC[C@@]2(OC1)OC1C[C@H]3[C@@H]4CC=C5CC(OC6OC(CO)C(OC7OC(CO)C(O)C(OC8OCC(O)C(O)C8O)C7OC7OC(CO)C(OC8OC(C)C(OC9OC(C)C(O)C(O)C9O)C(O)C8O)C(O)C7O)C(O)C6O)CCC5(C)[C@H]4CCC3(C)C1[C@@H]2C (some centres undefined) | = | 11.7

* * *

Catalogue of molecules with associated TGI
Tested on: UACC-62 melanoma
Assay: NCI tumour cell line growth inhibition, 48 h
assay_endpoint: TGI (µM)

molecule | comparison_sign | value_reported
COc1ccc(N2C(=O)C3c4[nH]c5ccc(OCc6ccccc6)cc5c4C4CCC(c5ccccc5)CC4C3C2=O)cc1 (centres undefined) | = | 29
NC(=O)Nc1c(Cl)cc(S(N)(=O)=O)cc1Cl | > | 100
CC(=O)c1c(C(F)(F)F)n([O-])c2ccccc2[n+]1=O | = | 3.02
Oc1cccc(Nc2nc3ccccc3c3occc23)c1 | = | 23.1
CC(=O)O[C@H]1CC(C)(C)C(=C=C/C(C)=C/C=C/C=C/C=C(C)/C=C2C=C(/C=C/[C@@]34O[C@]3(C)C[C@@H](O)CC4(C)C)C(=O)O/2)[C@](C)(O)C1 | = | 24
O=C1C=CC(=O)c2c1ccc1c3ccccc3n(Cc3ccc([N+](=O)[O-])cc3)c21 | > | 100
COc1cc(C2c3c(ccc4ccccc34)C(=O)C3CCC(=O)N32)cc(OC)c1OC (centres undefined) | > | 50
O=[N+]([O-])c1ccccc1OCCOc1ccccc1[N+](=O)[O-] | > | 100
O=C(COc1ccccc1Cl)N1N=C(c2ccc(Cl)cc2)CC1(O)c1ccccc1 (centres undefined) | > | 100

* * *

Test system: UACC-257 melanoma
Experiment: NCI tumour cell line growth inhibition, 48 h; in the data active = GI50 below about 0.43 µM; inactive = the rest
Possible outcomes: active, inactive

compound | system_under_test | class
CCCN1C(=O)NC(=O)C(CC)(N2C(=O)c3c(F)c(F)c(F)c(F)c3C2=O)C1=O (centres undefined) | UACC-257 melanoma | inactive
CC(=O)c1c(C(F)(F)F)n([O-])c2ccccc2[n+]1=O | UACC-257 melanoma | inactive
c1cc[c]([Sn][c]2ccccc2)cc1 | UACC-257 melanoma | inactive
CCN1C(=O)N(CC)C2C1NN=c1s/c(=C\c3ccc(Cl)cc3Cl)c(=O)n12 (centres undefined) | UACC-257 melanoma | inactive
O=C1OCC2=C1C(c1cccc(F)c1)c1cc3c(cc1N2CCO)OCO3 (centres undefined) | UACC-257 melanoma | inactive
CC1=C2C(=C[C@@](C)(CO)[C@@H]2OC(=O)N(C)CCN(C)C(=O)OC(C)(C)C)C(=O)[C@](C)(O)C12CC2 | UACC-257 melanoma | inactive
O=C(O)c1nc(NCc2nc3cc(Cl)ccc3o2)n[nH]1 | UACC-257 melanoma | inactive
COc1ccc(-c2noc(C(=O)O)c2-c2cc(OC)c(OC)c(OC)c2)cc1 | UACC-257 melanoma | inactive
Cc1cc([NH-])c([NH-])cc1C.[Cl][Pt+2][Cl] | UACC-257 melanoma | inactive
COc1ccc(C2=Nn3c(nnc3-c3cc(Cl)cc(Cl)c3Cl)SC2)cc1 | UACC-257 melanoma | active
CCc1c2c(nc3ccc(OCc4ccc(B(O)O)cc4)cc13)-c1cc3c(c(=O)n1C2)COC(=O)[C@]3(O)CC | UACC-257 melanoma | active
O=C(Oc1cccnc1)c1cccnc1Nc1ccnc(C(F)(F)F)c1 | UACC-257 melanoma | inactive
O=C(c1ccc2ccccc2c1)c1c(C(F)(F)F)n([O-])c2ccc(C(F)(F)F)cc2[n+]1=O | UACC-257 melanoma | inactive
C/C(=N/O)c1cccc(Nc2cc(-n3nnc4ccccc43)nc3ccccc23)c1 | UACC-257 melanoma | inactive
CCOC(=O)Oc1c(OC)cc(C(=O)c2ccc(OC)c(O)c2OC)cc1OC | UACC-257 melanoma | inactive
Cc1c2cnccc2c(C)c2c1c1cc(C#N)ccc1n2C | UACC-257 melanoma | active
O=C1/C(=C/c2ccc([N+](=O)[O-])cc2)CN(C(=O)CCN2CCC(=NO)CC2)C/C1=C\c1ccc([N+](=O)[O-])cc1 | UACC-257 melanoma | inactive
C=C1CCC2C3(C)COC(C)(C)OC3CCC2(C)C1C/C=C1/C(=O)OCC1OC(C)=O (centres undefined) | UACC-257 melanoma | inactive
O=C(/C=C(/C=C/c1ccc2[nH]ccc2c1)OB(F)F)/C=C/c1ccc2[nH]ccc2c1 | UACC-257 melanoma | inactive
